Target: T1, human TNFR1 (human, UniProt P19438)
T1 chain: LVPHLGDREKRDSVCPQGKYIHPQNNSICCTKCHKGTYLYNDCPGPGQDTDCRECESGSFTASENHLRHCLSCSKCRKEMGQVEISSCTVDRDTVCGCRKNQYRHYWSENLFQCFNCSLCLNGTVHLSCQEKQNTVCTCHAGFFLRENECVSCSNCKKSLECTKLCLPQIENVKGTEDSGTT
Assay: ELISA
Please respond with reported pEC50 for every item in the list.
Scale for pEC50: -log10 of concentration given in mol/L; no unit attached.

### Prompt pEC50 lookup needed for DOM1H-131-206 C-terminal ASTK (antibody, V domains shown) VH: EVQLLESGGGLVQPGGSLRLSCAASGFTFAHETMVWVRQAPGKGLEWVSHIPPDGQDPFYADSVKGRFTISRDNSKNTLYLQMNSLRAEDTAVYHCALLPKRGPWFDYWGQGTLVTVSS , thanks.
### Response 8.80

### Prompt pEC50 lookup needed for DOM1H-131-206 K43A (antibody, V domains shown) VH: EVQLLESGGGLVQPGGSLRLSCAASGFTFAHETMVWVRQAPGAGLEWVSHIPPDGQDPFYADSVKGRFTISRDNSKNTLYLQMNSLRAEDTAVYHCALLPKRGPWFDYWGQGTLVTVSS , thanks.
### Response 9.17

### Prompt pEC50 lookup needed for DOM1H-131-206 (antibody, V domains shown) VH: EVQLLESGGGLVQPGGSLRLSCAASGFTFAHETMVWVRQAPGKGLEWVSHIPPDGQDPFYADSVKGRFTISRDNSKNTLYLQMNSLRAEDTAVYHCALLPKRGPWFDYWGQGTLVTVSS , thanks.
### Response 8.70

From: patent US20210017293
